Each recorded value in this set is attributed to the supplement of paper PMC10567573.

B1: MGC16075 (parent)
chain: AGSRQALSFEVPPCNYDPEKWIQ

- Variants of: B1
- experiment.description: protein stability index of a GFP-peptide fusion (GPS, HEK-293T) (PSI 1-6); higher = more stable;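 note: lentivirally expressed fusions sorted by FACS into six bins by GFP to DsRed ratio, PSI derived from sequencing read proportions per bin multiplied by bin number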
- measurement.context: c terminus: native
The label depends only on protein stability index: MET if it is at least 2, NOT MET if it is smaller.

[[record]]
residue_codes = "AGSRQALSFEVPPCNYDPEKRIQ"
assigned_class = "MET"

[[record]]
residue_codes = "AGSRQALSFEVPPCNVDPEKWIQ"
assigned_class = "MET"

[[record]]
residue_codes = "AGSRQALSFEVPPCNYWPEKWIQ"
assigned_class = "NOT MET"

[[record]]
residue_codes = "AGSRQKLSFEVPPCNYDPEKWIQ"
assigned_class = "MET"

[[record]]
residue_codes = "AGSRQALSFEVPPCNYDTEKWIQ"
assigned_class = "NOT MET"

[[record]]
residue_codes = "AGSRQALSFEVPPCNYDYEKWIQ"
assigned_class = "NOT MET"

[[record]]
residue_codes = "AGSRQALSFEVPPCNHDPEKWIQ"
assigned_class = "NOT MET"

[[record]]
residue_codes = "AGSRQALSPEVPPCNYDPEKWIQ"
assigned_class = "MET"

[[record]]
residue_codes = "AGSRQALSFQVPPCNYDPEKWIQ"
assigned_class = "NOT MET"

[[record]]
residue_codes = "AGSRQAASFEVPPCNYDPEKWIQ"
assigned_class = "MET"

[[record]]
residue_codes = "AGSRQALSFEVPPCNSDPEKWIQ"
assigned_class = "NOT MET"

[[record]]
residue_codes = "AGSRQALSFEVPPCNYDPEKWLQ"
assigned_class = "MET"

[[record]]
residue_codes = "AGSRQALSFEVPPCNYDPEKWNQ"
assigned_class = "MET"

[[record]]
residue_codes = "AGSRQALSFSVPPCNYDPEKWIQ"
assigned_class = "MET"

[[record]]
residue_codes = "AGSREALSFEVPPCNYDPEKWIQ"
assigned_class = "MET"

[[record]]
residue_codes = "AWSRQALSFEVPPCNYDPEKWIQ"
assigned_class = "NOT MET"

[[record]]
residue_codes = "AGSRQALSFEHPPCNYDPEKWIQ"
assigned_class = "NOT MET"

[[record]]
residue_codes = "AGSRKALSFEVPPCNYDPEKWIQ"
assigned_class = "NOT MET"

[[record]]
residue_codes = "AGSRQARSFEVPPCNYDPEKWIQ"
assigned_class = "MET"

[[record]]
residue_codes = "AGSRQALSFEVPPCNYDPQKWIQ"
assigned_class = "MET"

[[record]]
residue_codes = "AGSRQALSFEVPPCNYDPWKWIQ"
assigned_class = "MET"

[[record]]
residue_codes = "AGSRQALSFEVPPCNYDWEKWIQ"
assigned_class = "NOT MET"

[[record]]
residue_codes = "AGSRQAPSFEVPPCNYDPEKWIQ"
assigned_class = "NOT MET"

[[record]]
residue_codes = "AGSRQALSFEVPPCMYDPEKWIQ"
assigned_class = "NOT MET"

[[record]]
residue_codes = "AGSRQALSFEVPPCNYDPEKWID"
assigned_class = "NOT MET"

[[record]]
residue_codes = "NGSRQALSFEVPPCNYDPEKWIQ"
assigned_class = "MET"

[[record]]
residue_codes = "AGSRQALSFEVPPCNWDPEKWIQ"
assigned_class = "NOT MET"

[[record]]
residue_codes = "AGSMQALSFEVPPCNYDPEKWIQ"
assigned_class = "MET"

[[record]]
residue_codes = "AGARQALSFEVPPCNYDPEKWIQ"
assigned_class = "NOT MET"

[[record]]
residue_codes = "AGSRTALSFEVPPCNYDPEKWIQ"
assigned_class = "MET"

[[record]]
residue_codes = "AGSRQALSFEVPPCNYDFEKWIQ"
assigned_class = "NOT MET"

[[record]]
residue_codes = "AGSRQALSFEVPMCNYDPEKWIQ"
assigned_class = "NOT MET"

[[record]]
residue_codes = "AGSRQALSFEVPPCNYPPEKWIQ"
assigned_class = "NOT MET"

[[record]]
residue_codes = "AGSRQALSFEVPPCNYDKEKWIQ"
assigned_class = "NOT MET"

[[record]]
residue_codes = "AGSRQALSFEVPPCIYDPEKWIQ"
assigned_class = "MET"

[[record]]
residue_codes = "AGSRQALSFELPPCNYDPEKWIQ"
assigned_class = "NOT MET"

[[record]]
residue_codes = "AGSRQALSFEVPPSNYDPEKWIQ"
assigned_class = "MET"

[[record]]
residue_codes = "AGSRQALSFEVEPCNYDPEKWIQ"
assigned_class = "MET"

[[record]]
residue_codes = "AGSRQPLSFEVPPCNYDPEKWIQ"
assigned_class = "NOT MET"

[[record]]
residue_codes = "TGSRQALSFEVPPCNYDPEKWIQ"
assigned_class = "MET"

[[record]]
residue_codes = "AGSRQALSFEVPPCNYDAEKWIQ"
assigned_class = "NOT MET"

[[record]]
residue_codes = "AGSRQALSFEVPPCNFDPEKWIQ"
assigned_class = "NOT MET"

